Biological target: human M4 muscarinic acetylcholine receptor (Homo sapiens)
Sequence (P08173 whole entry): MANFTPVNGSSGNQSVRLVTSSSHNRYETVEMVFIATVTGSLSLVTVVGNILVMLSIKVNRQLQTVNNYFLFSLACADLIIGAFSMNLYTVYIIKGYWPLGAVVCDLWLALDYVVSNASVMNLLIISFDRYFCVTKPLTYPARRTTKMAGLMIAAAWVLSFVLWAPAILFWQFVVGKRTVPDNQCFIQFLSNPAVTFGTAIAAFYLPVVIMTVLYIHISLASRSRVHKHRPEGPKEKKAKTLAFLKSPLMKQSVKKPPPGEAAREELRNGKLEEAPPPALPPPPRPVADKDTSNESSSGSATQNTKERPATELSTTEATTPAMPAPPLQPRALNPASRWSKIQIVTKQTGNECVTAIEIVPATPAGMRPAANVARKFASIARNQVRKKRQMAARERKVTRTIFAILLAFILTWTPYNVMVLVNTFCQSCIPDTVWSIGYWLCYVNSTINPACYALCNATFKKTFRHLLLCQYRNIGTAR
Test: human FLIPR-based M4 PAM assay, CHO-K1 cells stably transfected with human M4 receptor and chimeric G-protein Gαqi5
Conditions: inflection point (IP) of dose response curve; acetylcholine added at 20% of maximum response; CHO-K1 human M4/Gαqi5, FLIPR Tetra
Protocol: In a typical experiment the M4 muscarinic acetylcholine receptor modulating activity of the compounds of the present invention was determined in accordance with the following experimental method. […] Following dye loading the cell plates are placed in a FLIPR Tetra instrument and while monitoring dye fluorescence (excitation […]), 10 uL of test substance at increasing concentrations is added, and fluorescence values are recorded for 4 min. […]
pEC50: −log10 of the molar value.
QUANTITY MEASURED: pEC50

(I) Cc1nc(Cl)c(C)c(N2CCC(Oc3cccc(C#N)c3)CC2)n1
(II) COc1ccc(OC2CCN(c3nc(NCCO)nc(Cl)c3C)CC2)cn1
(III) Cc1ccc(OC2CCN(c3nc(CO)nc(Cl)c3C)CC2)cc1Cl
(IV) Cc1nnc(N2CCC(Oc3cccc(C#N)c3)CC2)c(C#N)c1C
Kindly provide a descending ordering of the above compounds based on their pEC50. // format: requested-order list of labels
I, II, III, IV

(a) COc1ccc(OC2CCN(c3nc(C)ncc3C)CC2)cn1
(b) Cc1cc(C(=O)NC2CCCc3ccccc32)nnc1N1CCC(Oc2cccc(C#N)c2)CC1 (stereo not drawn)
Thinking about recorded pEC50 values, which is higher, a or b ? State your choice using its label.
a
(a: 6.63, b: 6.33)

(1) COc1ccc(OC2CCN(c3nnc(C(=O)NCCc4ccccc4)cc3C)CC2)cn1
(2) COc1ccc(OC2CCN(c3nnc(C(=O)N[C@@H]4CCc5ccccc5C4)cc3C)CC2)cn1 [Example 165A]
Which gives the smaller pEC50 number: 1 or 2 ? Lab log: write the label of the selected item as the result.
2

----------
target: human M4 muscarinic acetylcholine receptor (Homo sapiens); assay: human FLIPR-based M4 PAM assay, CHO-K1 cells stably transfected with human M4 receptor and chimeric G-protein Gαqi5; settings: inflection point (IP) of dose response curve; acetylcholine added at 20% of maximum response; CHO-K1 human M4/Gαqi5, FLIPR Tetra
QUANTITY MEASURED: EC50 (nM)

Take a look at these entries with their results.
* COc1ccc(OC2CCN(c3nnc(C(=O)NCc4ccc5c(c4)CCO5)cc3C)CC2)cn1 | 629
* COc1ccc(OC2CCN(c3nnc(C(=O)NCc4ccc(F)cc4Cl)cc3C)CC2)cn1 | 915
* COc1ccc(OC2CCN(c3nc(SC)ncc3C#N)CC2)cn1 | 1150

(a) Cc1c(Cl)nc(CO)nc1N1CCC(Oc2ccc3c(c2)NC(=O)CC3)CC1
(b) Cc1ccc(OC2CCN(c3nnc(C(=O)NCc4ccncc4)cc3C)CC2)cc1Cl
Determine, for a and b , which has the greater value of EC50. Answer = label.
b
(b: 272 nM, a: 140 nM)

----------
biological target: UniProt P08173; test: human FLIPR-based M4 PAM assay, CHO-K1 cells stably transfected with human M4 receptor and chimeric G-protein Gαqi5; details: inflection point (IP) of dose response curve; acetylcholine added at 20% of maximum response; CHO-K1 human M4/Gαqi5, FLIPR Tetra
pEC50: −log10 of the molar value.
QUANTITY MEASURED: pEC50

- COc1ccc(OC2CCN(c3nnc(C(=O)NCCc4cn[nH]c4)cc3C)CC2)cn1 [Example 123]: 7.00
- COC(=O)Cc1c(Cl)ncnc1N1CCC(Oc2ccc(OC)cc2)CC1 [Example 17]: 5.57
- Cc1ncc(C)c(N2CCC(Oc3ccc4[nH]ncc4c3)CC2)n1 [Example 59]: 7.18
- CCc1cc(C(=O)NCc2ccncc2)nnc1N1CCC(Oc2ccc(OC)nc2)CC1 [Example 205]: 7.01
- COc1ccc(OC2CCN(c3ncc(C#N)c(Cl)c3C)CC2)cn1 [Example 34]: 6.66

(1) Cc1c(Cl)ncnc1N1CCC(Oc2ccc3c(cnn3C)c2)CC1 [Example 60]
(2) Cc1c(Cl)nc(CO)nc1N1CCC(Oc2ccc3c(ccn3C)c2)CC1 [Example 29]
When 1 and 2 are compared, which has the higher number for pEC50? Response format: the label of the selected entry.
1
(1: 7.17, 2: 6.90)

(I) COc1ccc(OC2CCN(c3nc(CO)nc(Cl)c3C)CC2)cc1C#N [Example 48]
(II) COc1ccc(OC2CCN(c3nnc(C(=O)NCCn4ccnn4)cc3C)CC2)cn1 [Example 142]
Rank I against II by their pEC50 values and give the higher one. Answer = label.
I
